Listing: inhibition of selected molecules
- Measurement protocol: M. tuberculosis H37Rv growth inhibitors, H37Rv strain (AID 1626);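 note: bacteria incubated seven days before Alamar blue readout; 0% = bacteria only wells and 100% = bacteria with antibiotic wells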
- Condition parameters: stronger effect = higher value, concentration not given here
Hit rate of the full screen: of about 220,000 compounds, about 2,000 (0.91%) were called active. Not shown: some 2% with an inconclusive outcome. The list is a sample of the results. Potency and affinity values are given separately.
Lab book: enter the figure in %, no units written.

Recorded inhibition, per entry:
// Cc1ccccc1-c1cnn(-c2cccc([N+](=O)[O-])c2)c1N : inhibition value = 5.3

// COC(=O)c1cccc(NC(=O)/C=C/c2cccc([N+](=O)[O-])c2)c1 : inhibition value = -2.96

// Cc1nnc(NC(=O)CCSCCC(=O)Nc2nnc(C)s2)s1 : inhibition value = 1.24

Continuing:
// Cc1cc2ncn(/N=C/c3cccnc3)c2cc1C : inhibition value = 7.38

// Clc1ccc(Cl)c(-c2ccc(/C=N/c3ncn[nH]3)o2)c1 : inhibition value = 6.69

// O=C(c1ccc(=O)[nH]n1)N1CCc2ccccc2C1 : inhibition value = 5.26

// Cc1cc2ncn(/N=C/c3cc(Br)ccc3O)c2cc1C : inhibition value = -5.04

// CCC(=O)Nc1ccc(NC(=S)NC(=O)c2cc3ccccc3o2)cc1 : inhibition value = 15.4

// Cc1ccc(OCCC(=O)Nc2ccc(F)c(F)c2)cc1 : inhibition value = -1.46

// CCCCOc1ccc(NC(=O)CN2CCN(C(=O)OCC)CC2)cc1 : inhibition value = -7.38

// N#Cc1c(SCC(=O)O)nc(-c2ccccc2)c2c1CCCC2 : inhibition value = -9.5

// CCCCCn1c(N)c(C(=O)NCCN2CCOCC2)c2nc3ccccc3nc21 : inhibition value = 27.3

// O=C(Nc1nnc(-c2cccs2)o1)c1ccco1 : inhibition value = 71.2

// Cc1ccc(NC(C)C(=O)N/N=C/c2ccc([N+](=O)[O-])s2)cc1 (stereo unspecified) : inhibition value = 75

// Nc1c(C(=O)NCc2ccc(F)cc2)c2nc3ccccc3nc2n1CCCN1CCOCC1 : inhibition value = 14.5

// CC(=O)c1cccc(NC(=O)C2CC(=O)N(Cc3ccccc3)C2)c1 (stereo unspecified) : inhibition value = -1.4

// O=C(O)C1CC=CCC1C(=O)Nc1ccccc1 (stereo unspecified) : inhibition value = -3.59

// O=C(O)[C@H]1CCCC[C@H]1C(=O)Nc1ccc(Nc2ccccc2)cc1 : inhibition value = 3.28

// OCc1nc2ccccc2n1/N=C/c1cccs1 : inhibition value = 1.55
